Reference source: the supplement of paper PMC9170038

Tested on: K4 kissing-loop RNA reporter;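 further: bound reporter read as fluorescence of individual clusters on recovered sequencing chips by microscopy, with normalized cluster intensities fitted with a binding model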
Assay: apparent KD of K4 kissing-loop reporter; higher = weaker reporter binding
Settings: Eterna round: R107; input ligand: arginine 13.2 mM
Would you mind labelling by apparent KD of K4 kissing-loop reporter? At or over 300 nM is class 1, under is class 0.

For orientation, consider the following solved cases.
AAGGCAUUCAGAAGGAGCGUGGUUUAAUCAUUAAUAUUUUUUACGAGUGAUGUUCGUAAUUCACAGGUAGGUCGCUGAAUAAUAA [JR_ExcArginiB_Sub008] | class 0
GGGAUGAUGUCGGCCGCCACUGACUGUGUCCAGUGAUGUUGGGAGUGUACGGAAGUUCCAUAUAUCAGGACCGGGACCUCGCUCC [theeternabot_sameState_KL_Trp_B_44] | class 1
CAUACGCAUGGAGGAUAUGAGAUUUCUCAUAUUAUUUAAUAUUCUCAGUGAUGUUGGGAUUUAAACUCAGAAGGCCAUGUGUAUG [Ex FMN B 7] | class 0
GGCAUAUGGGCAGGAUAUAGGCAGGUAGAGUGAUGUUCUUUCUGAAUAAUUCCAUCCUUCUACCUACUAGAAGGGCCCAUAUGCC | class 0
AUAUAUAACUGAAGGAGCGAGGCCAAAUAUAUAUAGUGAUGUUAUAUAAAGGCACAUAGGCCUCAGGUAGGUCGCAGAAUAAUAU [AstrosExyArGB#1] | class 0

Now consider a different sequence.
Q: hey, is apparent KD of K4 kissing-loop reporter for this one >= 300 nM? AGUGUGCAAAAGCACACUCAGAACAAGGACAAGGAUAUCUACUAAUAGAGAAGGUGUCCUUUCCUUAGUGAUGUUAAGGAACUGA [Omei KL FMN A SS D v5]
Result: class 1
